assay: Cytotoxicity against human LO2 cells assessed as reduction in cell viability after 24 hrs by MTT assay; format: cell-based, L02
Measured CC50 at 24 h by item

Q: Fill in: CC50 at 24 h of `CC(C)=CC[C@@H](OC(=O)/C=C\C(=O)c1ccc(C)c(Br)c1)C1=CC(=O)c2c(O)ccc(O)c2C1=O` is ___
A: > 100 µM

Q: Fill in: CC50 at 24 h of `CC(C)=CC[C@@H](OC(=O)/C=C\C(=O)c1ccc(Br)cc1)C1=CC(=O)c2c(O)ccc(O)c2C1=O` is ___
A: > 100 µM

Q: Fill in: CC50 at 24 h of `CC(C)=CC[C@@H](OC(=O)/C=C\C(=O)c1ccc(C)cc1F)C1=CC(=O)c2c(O)ccc(O)c2C1=O` is ___
A: > 100 µM

----------
Measured IC50 by item
system: A549; test: Antiproliferative activity against human A549 cells assessed as reduction in cell viability after 24 hrs by MTT assay; format: functional, cell-based; details: A549, 24 h
Express your answer in µM, writing the number without its unit.

1. CC(C)=CC[C@@H](OC(=O)/C=C\C(=O)c1ccc(C)c(Br)c1)C1=CC(=O)c2c(O)ccc(O)c2C1=O = 15.4
2. CC(C)=CC[C@@H](OC(=O)/C=C\C(=O)c1ccc(C)c(F)c1)C1=CC(=O)c2c(O)ccc(O)c2C1=O = 9.39

Moving on to another compound below.
Q: Fill in: IC50 of `CCc1ccc(C(=O)/C=C\C(=O)O[C@H](CC=C(C)C)C2=CC(=O)c3c(O)ccc(O)c3C2=O)cc1` is ___
A: 14.5

----------
Measured IC50 by item
test system: A549; test: Antiproliferative activity against human A549 cells assessed as reduction in cell viability after 24 hrs by MTT assay; format: functional, cell-based; settings: A549, 24 h
Express your answer in µM, writing the number without its unit.

1) CC(C)=CC[C@@H](OC(=O)/C=C\C(=O)c1ccc(C)cc1)C1=CC(=O)c2c(O)ccc(O)c2C1=O = 9.72
2) CC(C)=CC[C@@H](OC(=O)/C=C\C(=O)c1cc(C)ccc1C)C1=CC(=O)c2c(O)ccc(O)c2C1=O = 13.1

Q: Fill in: IC50 of `CC(C)=CC[C@@H](OC(=O)/C=C\C(=O)c1ccc(C)cc1F)C1=CC(=O)c2c(O)ccc(O)c2C1=O` is ___
A: 12.6

----------
Measured pIC50 by item
test system: MCF7; assay: Antiproliferative activity against human MCF7 cells assessed as reduction in cell viability after 24 hrs by MTT assay; format: functional, cell-based; conditions: MCF7, 24 h
Hey, just a heads up that pIC50 is the negative log base 10 of the concentration in molar.

Some solved entries appear below for comparison.
1) CC(C)=CC[C@@H](OC(=O)/C=C\C(=O)c1ccc(Cl)cc1)C1=CC(=O)c2c(O)ccc(O)c2C1=O = 5.02
2) CC(C)=CC[C@@H](O)C1=CC(=O)c2c(O)ccc(O)c2C1=O = 5.02
3) CC(C)=CC[C@@H](OC(=O)/C=C\C(=O)c1ccc(F)cc1)C1=CC(=O)c2c(O)ccc(O)c2C1=O = 5.05
4) CC(C)=CC[C@@H](OC(=O)/C=C\C(=O)c1ccc(C)cc1)C1=CC(=O)c2c(O)ccc(O)c2C1=O = 5.04

Q: Fill in: pIC50 of `CN(C)C/C=C/C(=O)Nc1cc2c(Nc3ccc(F)c(Cl)c3)ncnc2cc1O[C@H]1CCOC1` is ___
A: 5.12
